Just for reference, patent US9586961B2 is where these values come from.

A collection of compounds and their measured EC50
- system tested: TYK2 (Homo sapiens)
- Construct: JAK1 (aa 850-1154) and TYK2 (aa 871-1187) are expressed with an N-terminally fused GST-tag; GST (N)
- Sequence (P29597 871-1187): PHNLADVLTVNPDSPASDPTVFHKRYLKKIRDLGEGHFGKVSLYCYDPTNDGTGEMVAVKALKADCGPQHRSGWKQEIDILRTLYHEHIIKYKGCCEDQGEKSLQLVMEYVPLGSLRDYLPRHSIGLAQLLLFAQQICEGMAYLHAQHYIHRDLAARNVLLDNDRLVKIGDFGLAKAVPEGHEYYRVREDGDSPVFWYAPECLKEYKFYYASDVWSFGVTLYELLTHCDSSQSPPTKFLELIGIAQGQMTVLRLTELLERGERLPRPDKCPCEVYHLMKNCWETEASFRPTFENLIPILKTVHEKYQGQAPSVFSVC
- procedure details: TYK2 kinase assay (HTRF, inhibition of phosphorylation of a synthetic peptide)
- condition notes: catalytic domain aa 871-1187, GST-tag; 13 μM ATP (Km); read-out: TYK2 kinase inhibitory activity (EC50)

> print(dat)
                                   compound        system.tested       result
1  N#Cc1ccc(C(F)(F)C(=O)N2CCN(c3ncnc4[nH]ccc34)CC3(CC3)C2)cc1 [Example 13]  TYK2 (Homo sapiens)       > 1 µM
2  N#Cc1csc(C(=O)N2CCCN(c3ncnc4[nH]ccc34)CC23CC3)c1 [Example 119]  TYK2 (Homo sapiens)  0.1 to 1 µM

Log: TYK2 (Homo sapiens), compound N#Cc1ccccc1C(=O)N1CCN(c2ncnc3[nH]ccc23)CC2(CC2)C1 [Example 7] , EC50 = > 1 µM

Log: TYK2 (Homo sapiens), compound NS(=O)(=O)c1ccc(C(=O)N2CCN(c3ncnc4[nH]ccc34)CC3(CC3)C2)o1 [Example 37] , EC50 = > 1 µM

Log: TYK2 (Homo sapiens), compound O=C(Cc1ccc(I)cc1)N1CCN(c2ncnc3[nH]ccc23)CC2(CC2)C1 [Example 66] , EC50 = 0.1 to 1 µM

Log: TYK2 (Homo sapiens), compound NS(=O)(=O)CCCC(=O)N1CCN(c2ncnc3[nH]ccc23)CC2(CC2)C1 [Example 39] , EC50 = > 1 µM

Log: TYK2 (Homo sapiens), compound N#CCc1ccc(C(=O)N2CCN(c3ncnc4[nH]ccc34)CC3(CC3)C2)cc1 [Example 12] , EC50 = > 1 µM

Log: TYK2 (Homo sapiens), compound Nc1nonc1C(=O)N1CCCN(c2ncnc3[nH]ccc23)CC12CC2 [Example 256] , EC50 = 0.1 to 1 µM

Log: TYK2 (Homo sapiens), compound N#CCOc1cccc(CC(=O)N2CCN(c3ncnc4[nH]ccc34)CC3(CC3)C2)c1 [Example 17] , EC50 = > 1 µM

Log: TYK2 (Homo sapiens), compound CNS(=O)(=O)c1csc(C(=O)N2CCN(c3ncnc4[nH]ccc34)CC3(CC3)C2)c1C [Example 23] , EC50 = > 1 µM

Log: TYK2 (Homo sapiens), compound N#Cc1ccc2[nH]c(C(=O)N3CCN(c4ncnc5[nH]ccc45)CC4(CC4)C3)cc2c1 [Example 8] , EC50 = > 1 µM
